From: patent US20030114445A1

ASSAY_SYSTEM: B.subtilis pol IIIC (Bacillus subtilis, UniProt P13267)
Sequence (P13267 whole entry): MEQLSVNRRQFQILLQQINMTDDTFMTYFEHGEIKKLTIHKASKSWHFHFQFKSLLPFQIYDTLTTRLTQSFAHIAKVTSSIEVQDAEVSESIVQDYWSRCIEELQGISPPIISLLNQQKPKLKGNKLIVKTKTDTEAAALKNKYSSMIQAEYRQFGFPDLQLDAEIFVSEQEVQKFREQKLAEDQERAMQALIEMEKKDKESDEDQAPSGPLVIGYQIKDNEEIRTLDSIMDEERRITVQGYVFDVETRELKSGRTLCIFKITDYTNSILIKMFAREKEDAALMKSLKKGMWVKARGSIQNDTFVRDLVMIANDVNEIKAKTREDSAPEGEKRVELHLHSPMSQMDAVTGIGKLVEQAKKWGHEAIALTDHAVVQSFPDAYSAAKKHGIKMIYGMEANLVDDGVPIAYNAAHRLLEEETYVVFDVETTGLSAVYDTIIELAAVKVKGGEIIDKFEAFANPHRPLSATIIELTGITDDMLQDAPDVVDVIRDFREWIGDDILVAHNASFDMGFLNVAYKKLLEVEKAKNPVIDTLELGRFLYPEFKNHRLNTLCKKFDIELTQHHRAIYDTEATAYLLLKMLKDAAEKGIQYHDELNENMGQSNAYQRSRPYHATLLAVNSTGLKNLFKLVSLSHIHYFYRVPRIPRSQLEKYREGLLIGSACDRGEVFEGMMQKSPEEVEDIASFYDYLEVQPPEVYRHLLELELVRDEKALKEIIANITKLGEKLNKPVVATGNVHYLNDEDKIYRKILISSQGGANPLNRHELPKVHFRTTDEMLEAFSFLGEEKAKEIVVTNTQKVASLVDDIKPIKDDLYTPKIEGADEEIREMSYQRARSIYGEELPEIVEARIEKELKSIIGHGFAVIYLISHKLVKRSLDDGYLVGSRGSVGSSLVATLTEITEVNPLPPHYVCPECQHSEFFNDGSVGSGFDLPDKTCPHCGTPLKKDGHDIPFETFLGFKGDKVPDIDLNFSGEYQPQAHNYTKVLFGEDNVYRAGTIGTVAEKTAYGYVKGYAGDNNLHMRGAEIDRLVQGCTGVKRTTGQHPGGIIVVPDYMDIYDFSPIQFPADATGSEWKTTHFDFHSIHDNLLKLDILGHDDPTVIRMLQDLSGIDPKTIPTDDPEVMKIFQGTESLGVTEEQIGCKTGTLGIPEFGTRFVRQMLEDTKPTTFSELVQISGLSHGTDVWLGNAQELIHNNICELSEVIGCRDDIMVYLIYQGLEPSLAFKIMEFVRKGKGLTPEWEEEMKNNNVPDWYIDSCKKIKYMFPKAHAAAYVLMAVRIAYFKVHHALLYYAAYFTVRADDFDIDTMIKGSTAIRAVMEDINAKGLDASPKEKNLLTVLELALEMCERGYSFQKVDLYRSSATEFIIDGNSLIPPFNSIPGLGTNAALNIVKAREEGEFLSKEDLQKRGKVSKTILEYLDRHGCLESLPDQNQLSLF
EXPERIMENT_DESCRIPTION: biochemical
pKi: −log10 of the molar value.
Could you label it Criterion met if measured pKi is 7 or higher, and Criterion not met otherwise?

Some entries whose results are on file:
> print(dat)
                                   compound                              assay.system        class.label
1  CCc1cc(Nc2cc(=O)n(CCCCCCCCO)c(=O)[nH]2)ccc1C  B.subtilis pol IIIC (Bacillus subtilis, UniProt P13267)      Criterion met
2  CCc1cc(Nc2cc(=O)n(CCCCCN3CCc4c([nH]c5ccc(OC)cc45)C3C(=O)O)c(=O)[nH]2)ccc1C (stereo not shown)  B.subtilis pol IIIC (Bacillus subtilis, UniProt P13267)  Criterion not met
3  CCc1cc(Nc2cc(=O)n(CC(=O)N(CC)CC)c(=O)[nH]2)ccc1C  B.subtilis pol IIIC (Bacillus subtilis, UniProt P13267)  Criterion not met
4  CCc1cc(Nc2cc(=O)n(CCNS(C)(=O)=O)c(=O)[nH]2)ccc1C  B.subtilis pol IIIC (Bacillus subtilis, UniProt P13267)  Criterion not met
5  CCc1cc(Nc2cc(=O)n(CCCCOC(=O)CCl)c(=O)[nH]2)ccc1C  B.subtilis pol IIIC (Bacillus subtilis, UniProt P13267)      Criterion met
6  CCc1cc(Nc2cc(=O)n(CCCCOC(C)=O)c(=O)[nH]2)ccc1C  B.subtilis pol IIIC (Bacillus subtilis, UniProt P13267)      Criterion met
7  CCc1cc(Nc2cc(=O)n(CCCCN3CC=C(c4ccc(F)c(C)c4)CC3)c(=O)[nH]2)ccc1C  B.subtilis pol IIIC (Bacillus subtilis, UniProt P13267)      Criterion met
8  CCc1cc(Nc2cc(=O)n(CCCCNC(=O)CCl)c(=O)[nH]2)ccc1C  B.subtilis pol IIIC (Bacillus subtilis, UniProt P13267)      Criterion met

**Query** Hello, I need to know if CCc1cc(Nc2cc(=O)n(CCCCCn3cnc4c(=O)n(C)c(=O)n(C)c43)c(=O)[nH]2)ccc1C has measured pKi not below 7. Thanks!
**Result** Criterion met

* * *

Please consider the recorded MIC for E. fecium in what follows.
Answer with a number only, understood to be in µg/mL.

Worked cases, MIC given:
> print(dat)
                                   molecule  assay.system  property.label  experimental.result
1  CCc1cc(Nc2cc(=O)n(CCCCN3CCN(Cc4ccccc4)CC3)c(=O)[nH]2)ccc1C     E. fecium             MIC                    5
2  CCc1cc(Nc2cc(=O)n(CCCC(=O)O)c(=O)[nH]2)ccc1C     E. fecium             MIC                   20
3  CCc1cc(Nc2cc(=O)n(CCCCOC(=O)CCl)c(=O)[nH]2)ccc1C     E. fecium             MIC                    5

Now turn to the next molecule.
**Query** Field: MIC (E. fecium). Entry: CCOC(=O)C1CN(CCCCCn2c(=O)cc(Nc3ccc(C)c(CC)c3)[nH]c2=O)CCC1=O (centres unmarked)
**Result** 80
